test system: human fat suspension; test: In vitro glycerol production assay, 250 mg/ml human fat suspension (Example 9); type: cell-based; settings: 250 mg/ml human fat suspension, 4 hrs at 37 degrees Celsius
value_type: Glycerol production (FIG. 20)

Take a look at these entries with their results.
>  <molecule>
Cc1cccc(C)c1N=C1NCCCS1

>  <Glycerol production (FIG. 20)>
reduced

$$$$
>  <molecule>
CC(C)(C)NCC(O)COc1cccc2[nH]c(=O)[nH]c12 (stereo not shown)

>  <Glycerol production (FIG. 20)>
increased

$$$$
>  <molecule>
CCc1ccccc1OC[C@@H](O)CN[C@H]1CCCc2ccccc21

>  <Glycerol production (FIG. 20)>
reduced

$$$$
>  <molecule>
Cn1c(=O)c2c(ncn2C)n(C)c1=O

>  <Glycerol production (FIG. 20)>
increased

$$$$
>  <molecule>
C[C@H](Cc1ccc2c(c1)OC(C(=O)[O-])(C(=O)[O-])O2)NC[C@H](O)c1cccc(Cl)c1.[Na+].[Na+]

>  <Glycerol production (FIG. 20)>
increased

$$$$
>  <molecule>
CCOC(=O)COc1ccc2c(c1)C[C@@H](NC[C@H](O)c1cccc(Cl)c1)CC2 [SR 58611A, Amibegron]

>  <Glycerol production (FIG. 20)>
increased

$$$$

Attention now turns to another entry.
stdin: Which Glycerol production (FIG. 20) reading was recorded for the molecule "COC(=O)[C@@H]1[C@H]2C[C@H]3c4[nH]c5ccccc5c4CCN3C[C@@H]2CC[C@@H]1O" ?
stdout: increased

Source: patent US20210220241A1
